Reference for the values: patent US20120027679A1

- SUBJECT OF TEST: T1, HER2 (epidermal growth factor receptor 2) on N87 cells (UniProt P04626 23-1255, limits assumed)
- T1 construct: whole, on cells; N87 cells are used as HER2-positive cells; also called HER2-positive cells (N87); HER2-expressing cells
- TEST METHOD NOTES: saturation binding to N87 cells, Scatchard plot, apparent Kd; HBP1 particle
Where no end group is shown, it is not given here. Side-chain parts run from the residue outwards. maleimide = maleimide group (reactive functional group for coupling a ligand)
QUANTITY NAME: pKd
// field semantics: pKd = negative decimal log of concentration (mol/L)

Ask | Report pKd for MARSGLGGKGSC([maleimide-PEG 300-iron oxide nanoparticle 200 nm]) (not fully specified) [HBP1-EO-NP-200: HER2-binding peptide-immobilized 200-nm particle containing an iron oxide particle]
Reply | 9.17
